molecular target: Short transient receptor potential channel 4 (Mus musculus) (UniProt Q9QUQ5); test: TRPC4 positive allosteric modulators, dose response, cell-based, HEK293 TRPC4/mu-opioid, Fluo-4 calcium, EC20 DAMGO (AID 434941); settings: HEK293 TRPC4/mu-opioid cells, Fluo-4 calcium fluorescence;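 also: calcium entry triggered by an EC20 dose of DAMGO at the co-expressed mu-opioid receptor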
Sequence (Q9QUQ5 whole entry, looked up): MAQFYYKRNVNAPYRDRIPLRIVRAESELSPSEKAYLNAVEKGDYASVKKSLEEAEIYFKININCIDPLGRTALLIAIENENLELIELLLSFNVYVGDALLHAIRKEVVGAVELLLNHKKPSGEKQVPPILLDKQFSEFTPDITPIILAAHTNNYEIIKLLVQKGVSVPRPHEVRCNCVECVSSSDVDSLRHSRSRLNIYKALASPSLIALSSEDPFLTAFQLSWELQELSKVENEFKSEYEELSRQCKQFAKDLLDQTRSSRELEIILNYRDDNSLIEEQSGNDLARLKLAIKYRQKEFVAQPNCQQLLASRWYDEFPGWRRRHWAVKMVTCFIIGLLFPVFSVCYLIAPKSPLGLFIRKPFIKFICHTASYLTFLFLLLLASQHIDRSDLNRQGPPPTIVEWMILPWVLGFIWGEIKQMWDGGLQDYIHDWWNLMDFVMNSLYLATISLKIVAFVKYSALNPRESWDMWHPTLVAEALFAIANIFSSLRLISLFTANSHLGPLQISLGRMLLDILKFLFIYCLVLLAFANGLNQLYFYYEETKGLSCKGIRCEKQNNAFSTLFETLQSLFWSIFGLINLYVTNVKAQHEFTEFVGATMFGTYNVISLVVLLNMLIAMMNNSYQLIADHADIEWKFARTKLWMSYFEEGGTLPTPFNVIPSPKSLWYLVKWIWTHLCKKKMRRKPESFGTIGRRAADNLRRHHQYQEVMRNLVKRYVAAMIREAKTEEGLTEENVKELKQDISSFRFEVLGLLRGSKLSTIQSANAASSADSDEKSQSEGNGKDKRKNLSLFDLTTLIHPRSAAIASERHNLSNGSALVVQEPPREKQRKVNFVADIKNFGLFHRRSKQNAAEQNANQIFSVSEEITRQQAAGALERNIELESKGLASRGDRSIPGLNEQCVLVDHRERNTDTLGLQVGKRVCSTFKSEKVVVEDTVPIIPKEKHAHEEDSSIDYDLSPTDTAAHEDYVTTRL
Parameter: pEC50
Value format note: pEC50 is -log10 of concentration (mol/L); just state the number.

Name the recorded pEC50 of the item Cn1c(O)c(/C=N/NC(=O)c2cc3ccccc3cc2O)c2ccccc21 in your answer.
5.22

Data provenance: PubChem BioAssay AID434941
